# Test system: LOX IMVI melanoma
# Assay protocol: NCI tumour cell line growth inhibition, 48 h
Parameter: TGI

Summary for this compound, CCOC1(OCC)C2C=CC1C(COS(=O)(=O)c1ccc(C)cc1)C2COS(=O)(=O)c1ccc(C)cc1 (stereo not drawn) : TGI is > 100 µM

Summary for this compound, Cc1cn2c(=O)c3ncn(C4OC(CO)C(O)C4O)c3n(C)c2n1 (stereo not drawn) : TGI is > 100 µM

Summary for this compound, CC(C)NC(=O)OCc1c(COC(=O)NC(C)C)c(-c2cc[n+](COC(=O)C3CC3)cc2)n2c1CCC2 : TGI is > 100 µM

Summary for this compound, COc1cc(C2C3C=CC=C4CC=CC(=C43)C3CCC(=O)N32)cc(OC)c1OC (stereo not drawn) : TGI is > 100 µM

Summary for this compound, [N-]=[N+]=NC1(Cc2ccccc2)C(=O)c2cccc3c2N(CCC3)C1=O (stereo not drawn) : TGI is > 100 µM

Summary for this compound, CCOC(=O)Nc1[nH]cc(-c2ccccc2)c1C#N : TGI is > 100 µM

Summary for this compound, Nc1ccc2c(c1)C(=O)N1CCC[C@H]1C(=O)N2 : TGI is > 100 µM

Summary for this compound, O=C1CCC(Cl)=CC2CCCN12 (stereo not drawn) : TGI is > 100 µM

Summary for this compound, CO/N=C(\C(=O)OC(=NC1CCCCC1)NC1CCCCC1)c1csc(NC(c2ccccc2)(c2ccccc2)c2ccccc2)n1 : TGI is > 10 µM

Summary for this compound, CSC1=Nc2c(c(C)c(C)n2COC(CO)CO)C2=NC(=O)C(C)N12 (stereo not drawn) : TGI is > 100 µM

Summary for this compound, COC(=O)C1=C(C(=O)OC)N(c2ccc(OC)cc2[N+](=O)[O-])C(c2ccc(C)cc2)=CC1c1ccc(OC)cc1OC (stereo not drawn) : TGI is 6.75 µM

Summary for this compound, C=CCCON(C(=O)OC(C)(C)C)C(C)(C)C : TGI is > 100 µM

Summary for this compound, CCCCCCNc1n[nH]c(=O)c2c1nnn2Cc1ccccc1 : TGI is > 100 µM

Summary for this compound, CO/N=C(\C)c1ccc(Nc2nc3ccccc3c3occc23)cc1 : TGI is 32.1 µM

Summary for this compound, O=C(/C=C/c1ccccc1)CCC1C(=O)c2ccccc2C1=O : TGI is > 100 µM

Summary for this compound, CC1=NN(c2nc(N)nc(/C(C#N)=C\c3ccc([N+](=O)[O-])s3)n2)C(C)(C)C1 : TGI is 0.3 µM

Summary for this compound, O=[N+]([O-])c1ccc2[nH]c(=S)[nH]c(=S)c2c1 : TGI is > 100 µM

Summary for this compound, CN(C)CCNC(=O)c1cccc2ccc(-c3ccc(O)cc3)nc12 : TGI is 3.43 µM

###

# Tested on: CAKI-1 renal
# Assay protocol: NCI tumour cell line growth inhibition, 48 h
Parameter: TGI (µM)
Your answer should be a plain number; it is taken to be in µM.

Summary for this molecule, Cc1n(Cc2ccccc2)c2c([n+]1C)C(=O)c1ccccc1C2=O : TGI is 11.3

Summary for this molecule, CC/C=C\C[C@H](O)C/C=C1/C(=O)C(Cl)=C[C@@H]1C/C=C\CCCC(=O)OC : TGI is 1.89

Summary for this molecule, CC[As](CC)SC[C@H](C)C(=O)N1CCC[C@H]1C(=O)O : TGI is 0.0648

###

# System: SN12C renal
# Assay protocol: NCI tumour cell line growth inhibition, 48 h
Parameter: TGI (µM)
Your answer should be a plain number; it is taken to be in µM.

SN12C renal assay, molecule CC/C=C\C[C@H](O)C/C=C1/C(=O)C(Cl)=C[C@@H]1C/C=C\CCCC(=O)OC , recorded TGI = 1.33

SN12C renal assay, molecule CC1(C)N=C(N)N=C(N)N1c1ccc(CCCCc2ccc(Cl)cc2S(=O)(=O)F)c(Cl)c1 , recorded TGI = 14.7

SN12C renal assay, molecule CCN1CCN(C(=O)[C@@]2(C)CC[C@]3(C)CC[C@]4(C)C(=CC(=O)[C@@H]5[C@@]6(C)CC[C@H](OC7C[C@@H](O)[C@@H](O)C(C)O7)C(C)(C)[C@@H]6CC[C@]54C)[C@@H]3C2)CC1 (stereo not given in full) , recorded TGI = 1.83

SN12C renal assay, molecule C=CCc1cccc2cc(C(=O)NCc3ccccc3)c(=N)oc12 , recorded TGI = 91

###

# Tested on: 786-0 renal
# Assay protocol: NCI tumour cell line growth inhibition, 48 h; in the data active means GI50 below about 0.43 µM; inactive means the rest
Returns: one label drawn from active, inactive

IN: Please let me know the test result on file for CO/N=C(/C)c1cccc(Nc2cc(-n3nnc4ccccc43)nc3ccccc23)c1 .
OUT: inactive

IN: Please let me know the test result on file for S=C(Nc1ccc(Cl)cc1)Nc1ccc(-c2nc3ccccc3s2)cc1 .
OUT: inactive

IN: Please let me know the test result on file for CCCCOC(=O)CNC(=O)OC/C=C/C#CC#C/C=C/COC(=O)NCC(=O)OCCCC .
OUT: inactive

IN: Please let me know the test result on file for O=C(Nc1ccc(Nc2ccncc2)cc1)c1ccc([N+](=O)[O-])cc1 .
OUT: inactive

IN: Please let me know the test result on file for COc1ccccc1/C=N\N/C(N)=N\N=C\c1ccccc1OC .
OUT: inactive

IN: Please let me know the test result on file for Oc1ccc(Nc2ncnc3c2sc2ncccc23)cc1 .
OUT: active

IN: Please let me know the test result on file for COc1ccc(OC)c2c1[nH]c(=O)c1c3ccccc3cn21 .
OUT: inactive

IN: Please let me know the test result on file for COc1cc(Nc2ncccc2C(=O)NCc2cn(Cc3cccc(Oc4ccccc4)c3)nn2)cc(OC)c1 .
OUT: inactive

###

# System: NCI-H522 lung
# Assay protocol: NCI tumour cell line growth inhibition, 48 h
Give measured TGI for each item. Keep answers brief.
Your answer should be a plain number; it is taken to be in µM.

Summary for this compound, CC1(C)N=C(N)N=C(N)N1c1ccc(CCCCc2ccc(Cl)cc2S(=O)(=O)F)c(Cl)c1 : TGI is 13.4

Summary for this compound, Nc1ccc([N+](=O)[O-])cc1N=C/C=C/c1ccccc1 : TGI is 59

Summary for this compound, COc1cc(OCc2cccc(-c3ccc(C(O)c4nccs4)cc3)c2C)cc(OC)c1C=O (stereo not drawn) : TGI is 6.35

Summary for this compound, C=C1C(=O)OC2CC(C)C(C(CC(C)=O)OC(C)=O)=CCC12 (stereo not drawn) : TGI is 3.27

Summary for this compound, CO/N=C(\C)c1ccc(Nc2nc3ccccc3c3occc23)cc1 : TGI is 24

Summary for this compound, CN(C)c1ccc(/C=c2/c3ccccc3n3c2c2c([n+]3C)CCCC2)cc1 : TGI is 0.687

Summary for this compound, CC(=O)OC1COC(Oc2c(C)c3c4c(c2O)[C@@H](C)CC[C@@H]4[C@@H](C)C[C@H]3C=C(C)C)C(O)C1OC(C)=O (stereo partly drawn) : TGI is 35

Summary for this compound, CSc1nc(=O)n(CCC#N)nc1SC : TGI is 61.8

Summary for this compound, O=C1Sc2cc3ccccc3cc2C(=O)Sc2ccc(Br)cc21 : TGI is 4.52

Summary for this compound, O=c1/c(=C/c2ccccc2[N+](=O)[O-])sc2nnc(-c3ccco3)n12 : TGI is 32.9

###

# Test system: UACC-62 melanoma
# Assay protocol: NCI tumour cell line growth inhibition, 48 h
Parameter: TGI

Summary for this compound, O=C1c2ccccc2C(=O)c2c(NCC(O)CO)ccc(NCC(O)CO)c21 (stereo not given) : TGI is > 100 µM

Summary for this compound, COc1cc(-c2oc(=O)ccc2C#Cc2ccccn2)cc(OC)c1OC : TGI is > 20.1 µM

Summary for this compound, COc1ccccc1/C=N\N/C(N)=N\N=C\c1ccccc1OC : TGI is > 40.7 µM

Summary for this compound, COC(=O)COc1ccccc1/C=C1\N=C(c2ccccc2)N(c2cc(C(F)(F)F)ccc2Cl)C1=O : TGI is > 100 µM

Summary for this compound, CN=C(n1ccnc1)n1ccnc1 : TGI is > 100 µM

###

Give measured TGI for each item. Keep answers brief.
# Tested on: K-562 leukemia
# Assay protocol: NCI tumour cell line growth inhibition, 48 h

Summary for this compound, Cc1ccc(S(=O)(=O)Nc2ccccc2C=O)cc1 : TGI is 60.8 µM

Summary for this compound, O=C(O)COc1ccc2c(=O)c3sc4c(=O)c5ccccc5c(=O)c4c3c(=O)c2c1 : TGI is 95.1 µM

Summary for this compound, NC(=S)N/N=C/C(=O)O : TGI is > 100 µM

Summary for this compound, Cc1c(C)c2c(c(N)c1C#N)C(=O)N(NC(=O)c1ccccc1)C2=O : TGI is > 100 µM

Summary for this compound, COC(=O)C1=C(C(=O)OC)N(c2ccc(OC)cc2[N+](=O)[O-])C(c2ccc(C)cc2)=CC1c1ccc(OC)cc1OC (stereo not drawn) : TGI is > 54.4 µM

Summary for this compound, Oc1ccc(Nc2ncnc3c2sc2ncccc23)cc1 : TGI is > 100 µM

Summary for this compound, BrC1=C(Br)C2(SCCS2)[C@H]2C[C@@H]1c1ccccc12 : TGI is > 100 µM

Summary for this compound, COc1ccccc1/C=N\N/C(N)=N\N=C\c1ccccc1OC : TGI is 1.7 µM

Summary for this compound, O=C1/C(=C/c2ccc(Br)s2)NC(=S)N1c1ccccc1 : TGI is > 100 µM

Summary for this compound, CC12C/C(=C\c3ccccc3)C(=O)C3C1CCCC32 : TGI is > 100 µM

Summary for this compound, NC(=O)/C=C/C(=O)c1c(Cl)cccc1Cl : TGI is 5.83 µM

Summary for this compound, N.N.N.N.O=C([O-])CCl.O=C([O-])CCl.[Co+3].[O-][Cl+3]([O-])([O-])[O-] : TGI is > 100 µM

Summary for this compound, COc1cc(C2C3C=CC=C4CC=CC(=C43)C3CCC(=O)N32)cc(OC)c1OC (stereo not drawn) : TGI is > 100 µM

Summary for this compound, Cc1c2n(c(=O)[nH]c1=O)C1OC(CO)C(O2)C1O (stereo not drawn) : TGI is > 100 µM

Summary for this compound, Cc1cn2c(=O)c3ncn(C4OC(CO)C(O)C4O)c3n(C)c2n1 (stereo not drawn) : TGI is > 100 µM

Summary for this compound, COc1cccc(C2CC(C)(O)Oc3cc4c(cc32)OCO4)c1O (stereo not drawn) : TGI is > 53.6 µM

Summary for this compound, CC1(C)S[C@@H]2[C@H](NC(=O)C3(N)CCCCC3)C(=O)N2[C@H]1C(=O)O : TGI is > 100 µM

Summary for this compound, C=CCn1c(N)c(C#N)c(C#N)c1-c1ccccc1 : TGI is > 100 µM
